- methodNotes: Assay C: permeability in CACO-2 cells
- Format: in vitro ADME
- cond: human, pH 7.2; Table 7, compounds of the invention, CACO-2 cells, permeability B-A/permeability A-B; read-out: Efflux Ratio
Could you label it 1 if measured efflux ratio is 7 or higher, and 0 otherwise?

Could you please find out whether "Cn1cnnc1C1(F)CCN(c2c(C#N)cc(C(F)(F)F)nc2-c2cnc3nn(C)c(C(F)(F)F)c3c2)CC1" has efflux ratio that meets 7 or exceeds it?
0

Could you please find out whether "Cn1cc(-c2cc(C#N)c(N3CCC(F)(c4nncn4C)CC3)c(-c3cnc4nn(C(F)(F)F)cc4c3)n2)cn1" has efflux ratio that meets 7 or exceeds it?
1

Could you please find out whether "Cc1nn(C)cc1-c1cc(C#N)c(N2CCC(F)(c3nncn3C)CC2)c(-c2cnc3nn(C(F)(F)F)cc3c2)n1" has efflux ratio that meets 7 or exceeds it?
1

Could you please find out whether "Cn1cnnc1C1(F)CCN(c2c(C#N)cc(C3CC3)nc2-c2cnc3nn(C(F)(F)F)cc3c2)CC1" has efflux ratio that meets 7 or exceeds it?
0

Could you please find out whether "Cn1cnnc1C1(F)CCN(c2c(C#N)cc(C(F)(F)F)nc2-c2cnc3nn(C(C)(C)C)c(C(F)F)c3c2)CC1" has efflux ratio that meets 7 or exceeds it?
0

Could you please find out whether "Cn1cnnc1C1(F)CCN(c2c(C#N)cc(-c3cnc(C(F)(F)F)nc3)nc2-c2cnc3nn(C(F)(F)F)cc3c2)CC1" has efflux ratio that meets 7 or exceeds it?
1

Could you please find out whether "Cn1cnnc1C1(F)CCN(c2c(C#N)cc(C3CC3)nc2-c2cnc3nn(C)c(C(F)(F)F)c3c2)CC1" has efflux ratio that meets 7 or exceeds it?
0
